Quick list: growth per entry.
tested on: E. coli TESEC Alr+ wild-type control; test: growth (OD600 after 10 h); higher = more growth (less inhibition); settings: compound 0.1 mM; raw OD600 reference: median of DMSO wells 0.49, cell-free background 0.052
Counter-ions that a name gives are not always drawn.
Respond using a number only.

Worked set:
[[record]]
molecule = "CN1CCCN=C1/C=C/c1cccs1 [Pyrantel tartrate]"
recorded_value = 0.458

[[record]]
molecule = "CCOC(=O)O[C@]1(C(=O)OCCl)CC[C@H]2[C@@H]3CCC4=CC(=O)C=C[C@]4(C)[C@H]3[C@@H](O)C[C@@]21C [Loteprednol etabonate]"
recorded_value = 0.473

[[record]]
molecule = "CC[C@H]1OC(=O)[C@H](C)[C@@H](O[C@H]2C[C@@](C)(OC)[C@@H](O)[C@H](C)O2)[C@H](C)[C@@H](O[C@@H]2O[C@H](C)C[C@H](N(C)C)[C@H]2O)[C@](C)(OC)C[C@@H](C)C(=O)[C@H](C)[C@@H](O)[C@]1(C)O"
recorded_value = 0.055

[[record]]
molecule = "NS(=O)(=O)c1cc2c(cc1C(F)(F)F)NC(Cc1ccccc1)NS2(=O)=O (stereo unspecified) [Bendroflumethiazide]"
recorded_value = 0.487

[[record]]
molecule = "CC1CCc2cc(F)cc3c(=O)c(C(=O)O)cn1c23 (stereo unspecified)"
recorded_value = 0.0527

[[record]]
molecule = "Cc1c(N(C)C)c(=O)n(-c2ccccc2)n1C"
recorded_value = 0.462


QUERY: Identify measured growth corresponding to C[C@@H]1C[C@H]2[C@@H]3C[C@H](F)C4=CC(=O)C=C[C@]4(C)[C@@]3(F)[C@@H](O)C[C@]2(C)[C@@]1(O)C(=O)COC(=O)C(C)(C)C [Flumethasone pivalate]
RESULT: 0.521

QUERY: Query growth for "O=C(O)COC(=O)Cc1ccccc1Nc1c(Cl)cccc1Cl"
RESULT: 0.424

QUERY: # return recorded growth for input "Nc1nc(=O)[nH]cc1F"
RESULT: 0.57

QUERY: Consider the molecule c1ccc(CC2=NCCN2)cc1 [Tolazoline hydrochloride] . State its measured growth.
RESULT: 0.493

QUERY: Give the reported value of growth for this record: CCN1CCN(C(=O)N[C@@H](C(=O)N[C@@H]2C(=O)N3C(C(=O)O)=C(CSc4nnnn4C)CS[C@H]23)c2ccc(O)cc2)C(=O)C1=O [Cefoperazone dihydrate]
RESULT: 0.512

QUERY: Tell me growth reported for COc1ccccc1OCC(O)CN1CCN(CC(=O)Nc2c(C)cccc2C)CC1 (stereo unspecified)
RESULT: 0.471

QUERY: Assign growth to the following record: CCC(Cc1c(I)cc(I)c(N)c1I)C(=O)O (stereo unspecified)
RESULT: 0.263

QUERY: Give the reported value of growth for this record: "NNC(=O)c1ccncc1"
RESULT: 0.458

QUERY: Identify the reported growth for the following entry. "COC(=O)Nc1nc2cc(C(=O)c3ccc(F)cc3)ccc2[nH]1"
RESULT: 0.6

QUERY: Check the records and state growth for "C[C@]12CC[C@H]3[C@@H](CCC4=CC(=O)CC[C@@]43C)[C@@H]1CC[C@@H]2C(=O)CO"
RESULT: 0.333
